system: E. coli BW25113 ΔtolC growth inhibition, OD615; assay: growth inhibitors of E. coli tolC mutant, dose response, strain BW25113 ΔtolC::kan (AID 617);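 further: growth read after 20 h at 37 °C with compound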
Measured IC50, listed per entry for reference.
observation_type: IC50

>>> test_value("N#Cc1c(N)oc(-c2ccc3c(c2)OCO3)c1-c1ccc2c(c1)OCO2")
"49.9 µM"
>>> test_value("C=C(C)COc1ccc(-c2n[nH]c(C)c2-c2ccccc2)c(O)c1")
"8.47 µM"
>>> test_value("CC(Nc1ccc(Br)cn1)c1cc(Cl)ccc1O (stereo not given)")
"5.61 µM"
>>> test_value("COc1ccc(C(=O)C(CN2CCOCC2)c2ccccc2)cc1F (stereo not given)")
"17.7 µM"
>>> test_value("COC(=O)c1[nH]c2ccc(C)cc2c1NS(=O)(=O)c1ccc(F)cc1")
"6.58 µM"
>>> test_value("COC(=O)c1ccc(/C(O)=C(\\C#N)c2nc3ccccc3s2)cc1")
"2.51 µM"
>>> test_value("O=C(COc1cccc2ccccc12)N1CCN(c2ccccc2)CC1")
"22.6 µM"
>>> test_value("CCCCOc1ccc(NC2=NC3(CCCCC3)N=C(N)N2)cc1")
"2.64 µM"
>>> test_value("C=C(C)COc1ccc(-c2nc(N)ncc2-c2ccc(OC)cc2)c(O)c1")
"10.2 µM"
>>> test_value("CCCCN1C(=O)NC(=O)C2(Cc3c(nc4c(C)cccn4c3=O)N3CCc4ccccc4C32)C1=O (stereo not given)")
"3.2 µM"
>>> test_value("COc1cc(-c2nc(-c3cccc(C)c3)no2)cc(OC)c1OC")
"12.2 µM"
>>> test_value("CCc1c(C(=O)Nc2ncn(Cc3cccc(C)c3)n2)csc1C")
"29.1 µM"
>>> test_value("CN(Cc1ccccc1)c1ncnc2c1cnn2-c1ccccc1")
"12.7 µM"
>>> test_value("COCCNc1nc(-n2nc(C)cc2C)nc2sc3c(c12)CCCC3")
"6.71 µM"
>>> test_value("Cc1cc(C)n(-c2nc3ccccc3nc2N2CCCCCC2)n1")
"18.4 µM"
>>> test_value("CN(C)c1ccc(/C=N/n2ncc3ccccc32)cc1")
"34.6 µM"
>>> test_value("COC(=O)c1ccccc1NC(=O)N1c2ccccc2CC1C (stereo not given)")
"14.1 µM"
>>> test_value("Cc1ccc(Cn2ncn3c(cc4ccccc43)c2=O)cc1")
"14.1 µM"
>>> test_value("CC1CCCN(c2ccc(C(=O)NCCc3ccccc3)cn2)C1 (stereo not given)")
"49.4 µM"
>>> test_value("CCn1c(SC)nnc1-c1sc2cc(Cl)ccc2c1Cl")
"11.6 µM"
>>> test_value("Cc1cc(N2CCCCCC2)nc(-c2ccccc2O)n1")
"13.6 µM"
>>> test_value("Cc1cc(N2C3CCC2CC(O)(c2ccc(F)cc2)C3)nc(-c2ccccc2)n1 (stereo not given)")
"7.11 µM"
>>> test_value("CCC(=Nc1ccc(OC)cc1OC)c1c(O)n(C2CCCCC2)c(=O)[nH]c1=O")
"4.85 µM"
>>> test_value("Cc1cc(Nc2ccccc2)nc(-c2ccccc2O)n1")
"15.4 µM"
>>> test_value("CCC(C)(C)n1nnnc1C(c1cc2ccc(OC)cc2[nH]c1=O)N1CCc2ccccc2C1 (stereo not given)")
"17.1 µM"
>>> test_value("Cc1nn(-c2nc3ccccc3[nH]2)c(N)c1-c1ccccc1")
"59.4 µM"
>>> test_value("CC1CCN(c2nc3ccccc3nc2C(C#N)S(=O)(=O)c2ccccc2)CC1 (stereo not given)")
"9.39 µM"
>>> test_value("Cc1ccc(S(=O)(=O)Cn2nnnc2CN2CCCC3(CCCCC3)C2)cc1")
"11.3 µM"
>>> test_value("O=C(Nc1nnc(-c2ccccc2)o1)c1nc2ccccc2s1")
"1.34 µM"
>>> test_value("CCCc1nc(SC2CCCC2)c2c(=O)n(C)c(=O)n(C)c2n1")
"13.6 µM"
>>> test_value("CCOc1ccccc1N1CCN(C(=O)Nc2ccc(F)c(Cl)c2)CC1")
"10.2 µM"
>>> test_value("CCCN(CCC)C(=O)CSc1nc2ccccc2c(=O)n1C1CCCC1")
"14.2 µM"
>>> test_value("CCOc1cc(-c2c(C#N)c(=O)[nH]c3c2c(C)nn3-c2ccc(F)cc2)ccc1O")
"2.48 µM"
>>> test_value("Cc1noc(NS(=O)(=O)c2ccc(NC(=O)Nc3ccc(Cl)c(Cl)c3)cc2)c1C")
"4.51 µM"
>>> test_value("COC(=O)CNS(=O)(=O)c1ccc(Cc2ccc(S(=O)(=O)NCC(=O)OC)cc2)cc1")
"1.29 µM"
>>> test_value("O=C(Nc1cccc(S(=O)(=O)c2cccc(NC(=O)C3CC3)c2)c1)C1CC1")
"5.25 µM"
>>> test_value("N#Cc1c(NC(=O)CSc2n[nH]c(Cc3ccccc3)n2)oc(-c2ccccc2)c1-c1ccccc1")
"7.4 µM"
>>> test_value("C=C(C)C1CCC(C)=C1COC(=O)Nc1ccccc1 (stereo not given)")
"12.2 µM"
>>> test_value("Cc1ccc(Cn2ccc(NC(=O)c3cc(CC(C)C)on3)n2)cc1")
"8.54 µM"
>>> test_value("COc1ccc(-c2[nH]c(-c3cccc(OC)c3)nc2SCC(=O)NCc2ccco2)cc1")
"11.1 µM"
